system: pentagastrin-stimulated gastric acid secretion; assay: inhibition of pentagastrin-stimulated gastric acid secretion, anaesthetised perfused rat stomach (Ghosh and Schild preparation); format: in vivo; settings: intravenous
reported.metric: ED50 (mg/kg)
Answers are plain numbers, in mg/kg.

// each listed compound needs a value for ED50
1. CCCCCC(C)(O)CCN1C(=O)CC(=O)C1CCCCCCC(=O)OCC (stereo not shown)
2. CCCCCCC(C)(O)CCN1C(=O)CC(=O)C1CCCCCCC(=O)OCC (stereo not shown)
3. CCCCCCC(O)CCN1C(=O)CC(=O)C1CCCCCCC(=O)OCC (stereo not shown)
4. CCCCCC(C)C(C)(O)CCN1C(=O)CCC(=O)C1CCCCCCC(=O)OCC (stereo not shown)

Result string:
[0.72, 0.09, 2.6, 1]
